Molecular target: HLA-B*54:01
Experiment: IEDB peptide-MHC binding, purified MHC/competitive/radioactivity; filed as Kd, often an IC50 or EC50 that approximates it; bounds were set here for any values at or beyond the usual limits of such assays
Details: source organism: Lymphocytic choriomeningitis virus (strain WE)
Assay readout: Kd (nM)
Give bare numbers, in nM.

## Task Give the measured Kd for MPEWVNFKF
## Result 1000

* * *

Target: HLA-B*27:05
Test: IEDB peptide-MHC binding, purified MHC/direct/fluorescence; filed as Kd, often an IC50 or EC50 that approximates it; bounds were set here for any values at or beyond the usual limits of such assays
Conditions: source organism: Rickettsia bellii
Assay readout: Kd

## Task Entry NIDPEHLDY needs its Kd filled in; supply it.
## Result ≥ 20 µM

* * *

Molecular target: HLA-A*02:01
Test: IEDB peptide-MHC binding, purified MHC/competitive/radioactivity; filed as Kd, often an IC50 or EC50 that approximates it; bounds were set here for any values at or beyond the usual limits of such assays
Details: source organism: Homo sapiens
Assay readout: Kd

## Task Fill: Kd (HLA-A*02:01) for this sequence DMEISAYRKL
## Result ≥ 58.8 µM

* * *

Target: HLA-A*01:01
Assay: IEDB peptide-MHC binding, purified MHC/competitive/radioactivity; filed as Kd, often an IC50 or EC50 that approximates it; bounds were set here for any values at or beyond the usual limits of such assays
Settings: source organism: SARS coronavirus Tor2
pKd: −log10 of the molar value.
Threshold rule: pKd greater than or equal to 7 is Met; below that, Not met.

>>> discrete_label("KIEELFYSY")
"Not met"
>>> discrete_label("TVDSSQGSEY")
"Met"
>>> discrete_label("IFFASFYYI")
"Not met"
>>> discrete_label("KFADDLNQM")
"Not met"
>>> discrete_label("VWLGFIAGL")
"Not met"
>>> discrete_label("FYLCFLAFLL")
"Not met"
>>> discrete_label("ESASKSASVY")
"Not met"
>>> discrete_label("NSKVQIGEY")
"Not met"

## Task Is pKd at least 7? Consider DPAKAYKDY
## Result Not met

## Task Does KWDLIISDMY have a reported pKd of at least 7?
## Result Not met

## Task Has VTYNCCDDDY a recorded pKd greater than or equal to 7?
## Result Met

* * *

Target: HLA-A*03:01
Test: IEDB peptide-MHC binding, purified MHC/competitive/fluorescence; filed as Kd, often an IC50 or EC50 that approximates it; bounds were set here for any values at or beyond the usual limits of such assays
Conditions: source organism: Giardia lamblia ATCC 50803
Assay readout: Kd

## Task For HLA-A*03:01, give Kd of the listed sequence: DEYGPVFVE
## Result ≥ 20 µM

* * *

Target: HLA-B*58:01
Test: IEDB peptide-MHC binding, purified MHC/competitive/fluorescence; filed as Kd, often an IC50 or EC50 that approximates it; bounds were set here for any values at or beyond the usual limits of such assays
Settings: source organism: Escherichia coli 536
Assay readout: pKd
Answers are plain numbers, as −log10 of the molar value.

## Task Look up and report measured pKd for this entry: QMLPGYFRF
## Result 7.34

* * *

Molecular target: HLA-A*01:01
Assay: IEDB peptide-MHC binding, purified MHC/competitive/radioactivity; filed as Kd, often an IC50 or EC50 that approximates it; bounds were set here for any values at or beyond the usual limits of such assays
Settings: source organism: Dengue virus 4 Dominica/814669/1981
Assay readout: pKd
Give bare numbers, as −log10 of the molar value.

## Task Report pKd, nothing else, for this sequence: LTASLVMLL
## Result 5.72
